Below, each entry is listed with its recorded MIC (DAC).
Test system: clinical strain 1088
PROTOCOL NOTES: Inoculum effect on clinical strains on the DAC system
Format: cell-based, Mycobacterium tuberculosis
TEST CONDITIONS: inoculum 10^7/mL, MAC2, unit inferred

| COMPOUND | SYSTEM UNDER TEST | MIC (DAC) |
| --- | --- | --- |
| NNC(=O)c1ccncc1 [INH, isoniazid] | clinical strain 1088 | ≥ 0.2 µg/mL |
| CO[C@H]1/C=C/O[C@@]2(C)Oc3c(C)c(O)c4c(O)c(c(/C=N/N5CCN(C)CC5)c(O)c4c3C2=O)NC(=O)/C(C)=C\C=C\[C@H](C)[C@H](O)[C@@H](C)[C@@H](O)[C@@H](C)[C@H](OC(C)=O)[C@@H]1C [RFP, rifampicin] | clinical strain 1088 | ≥ 2 µg/mL |
| CC[C@@H](CO)NCCN[C@@H](CC)CO [EMB, ethambutol] | clinical strain 1088 | ≥ 10 µg/mL |
| [H]/N=C(/N)N[C@H]1[C@H](O)[C@@H](O)[C@H](O[C@@H]2O[C@@H](C)[C@](O)(C=O)[C@H]2O[C@@H]2O[C@@H](CO)[C@H](O)[C@@H](O)[C@@H]2NC)[C@@H](N/C(N)=N\[H])[C@@H]1O [SM, streptomycin] | clinical strain 1088 | ≥ 4 µg/mL |

* * *

Below, each entry is listed with its recorded MIC (DAC).
Test system: clinical strain 131
PROTOCOL NOTES: Inoculum effect on clinical strains on the DAC system
Format: cell-based, Mycobacterium tuberculosis
TEST CONDITIONS: inoculum 10^5/mL, DAC, unit inferred
Method: Mycobacterium tuberculosis identified by ZN staining and grown from an L-J slope or MGIT tube and was subjected to DST. For the preparation of inoculation from the LJ culture, colonies up to 14 days were extracted from the grown culture. The colonies were shaken with glass beads to crush large lumps. To obtain a high density (˜5×10^9 CFU/ml), the suspension was centrifuged at 3000 g for 10 min and pellets were resuspended in sterile PBS. […]

| MOL SMILES | MIC (DAC) |
| --- | --- |
| NNC(=O)c1ccncc1 | > 0.2 µg/mL |
| [H]/N=C(/N)N[C@H]1[C@H](O)[C@@H](O)[C@H](O[C@@H]2O[C@@H](C)[C@](O)(C=O)[C@H]2O[C@@H]2O[C@@H](CO)[C@H](O)[C@@H](O)[C@@H]2NC)[C@@H](N/C(N)=N\[H])[C@@H]1O | > 4 µg/mL |
| CC[C@@H](CO)NCCN[C@@H](CC)CO | > 10 µg/mL |
| CO[C@H]1/C=C/O[C@@]2(C)Oc3c(C)c(O)c4c(O)c(c(/C=N/N5CCN(C)CC5)c(O)c4c3C2=O)NC(=O)/C(C)=C\C=C\[C@H](C)[C@H](O)[C@@H](C)[C@@H](O)[C@@H](C)[C@H](OC(C)=O)[C@@H]1C | > 2 µg/mL |

* * *

System: clinical strain 131
PROTOCOL NOTES: Inoculum effect on clinical strains on the DAC system
Type: cell-based, Mycobacterium tuberculosis
TEST CONDITIONS: inoculum 10^4/mL, DAC, unit inferred
Below, each entry is listed with its recorded MIC (DAC).

| COMPOUND | MIC (DAC) |
| --- | --- |
| NNC(=O)c1ccncc1 [INH, isoniazid] | > 0.2 µg/mL |
| CC[C@@H](CO)NCCN[C@@H](CC)CO [EMB, ethambutol] | > 10 µg/mL |
| [H]/N=C(/N)N[C@H]1[C@H](O)[C@@H](O)[C@H](O[C@@H]2O[C@@H](C)[C@](O)(C=O)[C@H]2O[C@@H]2O[C@@H](CO)[C@H](O)[C@@H](O)[C@@H]2NC)[C@@H](N/C(N)=N\[H])[C@@H]1O [SM, streptomycin] | > 4 µg/mL |
| CO[C@H]1/C=C/O[C@@]2(C)Oc3c(C)c(O)c4c(O)c(c(/C=N/N5CCN(C)CC5)c(O)c4c3C2=O)NC(=O)/C(C)=C\C=C\[C@H](C)[C@H](O)[C@@H](C)[C@@H](O)[C@@H](C)[C@H](OC(C)=O)[C@@H]1C [RFP, rifampicin] | > 2 µg/mL |

* * *

Tested on: standard strain H37Rv
PROTOCOL NOTES: Inoculum effect test, DST on the DAC system
Type: cell-based, Mycobacterium tuberculosis
TEST CONDITIONS: inoculum 10^6/mL, MAC2, unit inferred

| MOL SMILES | SYSTEM UNDER TEST | MIC (DAC) [µg/mL] |
| --- | --- | --- |
| NNC(=O)c1ccncc1 | standard strain H37Rv | 0.05 |
| CO[C@H]1/C=C/O[C@@]2(C)Oc3c(C)c(O)c4c(O)c(c(/C=N/N5CCN(C)CC5)c(O)c4c3C2=O)NC(=O)/C(C)=C\C=C\[C@H](C)[C@H](O)[C@@H](C)[C@@H](O)[C@@H](C)[C@H](OC(C)=O)[C@@H]1C | standard strain H37Rv | 0.5 |
| CC[C@@H](CO)NCCN[C@@H](CC)CO | standard strain H37Rv | 2.5 |
| [H]/N=C(/N)N[C@H]1[C@H](O)[C@@H](O)[C@H](O[C@@H]2O[C@@H](C)[C@](O)(C=O)[C@H]2O[C@@H]2O[C@@H](CO)[C@H](O)[C@@H](O)[C@@H]2NC)[C@@H](N/C(N)=N\[H])[C@@H]1O | standard strain H37Rv | 2 |

* * *

System: clinical strain MSH
PROTOCOL NOTES: Inoculum effect on clinical strains on the DAC system
Format: cell-based, Mycobacterium tuberculosis
TEST CONDITIONS: inoculum 10^7/mL, MAC2, unit inferred
PROPERTY MEASURED: MIC (DAC) (µg/mL)

| COMPOUND | SYSTEM UNDER TEST | PROPERTY MEASURED | RECORDED VALUE |
| --- | --- | --- | --- |
| NNC(=O)c1ccncc1 [INH, isoniazid] | clinical strain MSH | MIC (DAC) | 0.025 |
| [H]/N=C(/N)N[C@H]1[C@H](O)[C@@H](O)[C@H](O[C@@H]2O[C@@H](C)[C@](O)(C=O)[C@H]2O[C@@H]2O[C@@H](CO)[C@H](O)[C@@H](O)[C@@H]2NC)[C@@H](N/C(N)=N\[H])[C@@H]1O [SM, streptomycin] | clinical strain MSH | MIC (DAC) | 0.5 |
| CC[C@@H](CO)NCCN[C@@H](CC)CO [EMB, ethambutol] | clinical strain MSH | MIC (DAC) | 1.25 |
| CO[C@H]1/C=C/O[C@@]2(C)Oc3c(C)c(O)c4c(O)c(c(/C=N/N5CCN(C)CC5)c(O)c4c3C2=O)NC(=O)/C(C)=C\C=C\[C@H](C)[C@H](O)[C@@H](C)[C@@H](O)[C@@H](C)[C@H](OC(C)=O)[C@@H]1C [RFP, rifampicin] | clinical strain MSH | MIC (DAC) | 0.5 |

* * *

Below, each entry is listed with its recorded MIC (DAC).
System: clinical strain 1088
PROTOCOL NOTES: Inoculum effect on clinical strains on the DAC system
Type: cell-based, Mycobacterium tuberculosis
TEST CONDITIONS: inoculum 10^3/mL, DAC, unit inferred

| COMPOUND | SYSTEM UNDER TEST | MIC (DAC) |
| --- | --- | --- |
| CO[C@H]1/C=C/O[C@@]2(C)Oc3c(C)c(O)c4c(O)c(c(/C=N/N5CCN(C)CC5)c(O)c4c3C2=O)NC(=O)/C(C)=C\C=C\[C@H](C)[C@H](O)[C@@H](C)[C@@H](O)[C@@H](C)[C@H](OC(C)=O)[C@@H]1C [RFP, rifampicin] | clinical strain 1088 | ≥ 2 µg/mL |
| NNC(=O)c1ccncc1 [INH, isoniazid] | clinical strain 1088 | ≥ 0.2 µg/mL |
| [H]/N=C(/N)N[C@H]1[C@H](O)[C@@H](O)[C@H](O[C@@H]2O[C@@H](C)[C@](O)(C=O)[C@H]2O[C@@H]2O[C@@H](CO)[C@H](O)[C@@H](O)[C@@H]2NC)[C@@H](N/C(N)=N\[H])[C@@H]1O [SM, streptomycin] | clinical strain 1088 | ≥ 4 µg/mL |
| CC[C@@H](CO)NCCN[C@@H](CC)CO [EMB, ethambutol] | clinical strain 1088 | 10 µg/mL |

* * *

System: standard strain H37Rv
PROTOCOL NOTES: Inoculum effect test, DST on the DAC system
Type: cell-based, Mycobacterium tuberculosis
TEST CONDITIONS: inoculum 10^4/mL, DAC, unit inferred
Below, each entry is listed with its recorded MIC (DAC).

| MOL SMILES | MIC (DAC), µg/mL |
| --- | --- |
| [H]/N=C(/N)N[C@H]1[C@H](O)[C@@H](O)[C@H](O[C@@H]2O[C@@H](C)[C@](O)(C=O)[C@H]2O[C@@H]2O[C@@H](CO)[C@H](O)[C@@H](O)[C@@H]2NC)[C@@H](N/C(N)=N\[H])[C@@H]1O | 2 |
| CC[C@@H](CO)NCCN[C@@H](CC)CO | 1.25 |
| CO[C@H]1/C=C/O[C@@]2(C)Oc3c(C)c(O)c4c(O)c(c(/C=N/N5CCN(C)CC5)c(O)c4c3C2=O)NC(=O)/C(C)=C\C=C\[C@H](C)[C@H](O)[C@@H](C)[C@@H](O)[C@@H](C)[C@H](OC(C)=O)[C@@H]1C | 0.5 |
| NNC(=O)c1ccncc1 | 0.05 |
